Assayed system: Aldo-keto reductase family 1 member B1 (Bos taurus)
Experiment: Tested for inhibition of bovine lens Aldose reductase (ALR2), expressed as IC50
Result type: IC50 (µM)
Field format: number, assumed µM, no unit text.

- Smi: "O=C(O)Cn1nc2c(c(Cc3nc4cc(C(F)(F)F)ccc4s3)c1=O)CCc1ccccc1-2"
  IC50, µM: 0.15

Returns the measured IC50 for the input molecule. Input: `O=C(O)Cn1nc2c(cc1=O)CCc1ccccc1-2`
12

###

Assayed system: UniProtKB P16116
Experiment: Inhibitory activity of compound against modified enzyme form of S-glutathionyl Aldose reductase
Result type: IC50

# IC50 lookup, item `O=C(O)Cn1nc2c(c(Cc3nc4cc(C(F)(F)F)ccc4s3)c1=O)CCc1ccccc1-2`
17 µM
